ASSAY TARGET: SpBbc1
TEST DESCRIPTION: SPOT peptide array binding signal intensity (averaged, normalized) (arbitrary units (background-subtracted, floor 0; scale differs between SH3 domains)); higher = stronger binding of the SH3 domain to the peptide
Assign true (1) whenever SPOT peptide array binding signal intensity does not fall below 6; assign false (0) whenever it does.

BINDER | ASSIGNED CLASS
MPAPPPPPPPPPGAF | false (0)
IRMPSNPALPKKLLN | false (0)
LKPPIGRPPKFPKSP | true (1)
FSRRQSMDIPSKNRN | true (1)
VQPTAAPATPPRHIS | false (0)
GPPPPLPPPLFPSSS | false (0)
QLMKNLPKIPLLNDI | false (0)
GLRRARYKFPGQQKI | false (0)
TYNRTAFQIPGDQSI | false (0)
FIRKRAPTPPAPSRS | true (1)
PELAPKREAPKPPAN | false (0)
ALFRLSFFFPLDPAY | true (1)
PSRRDSLSIPRAVDA | false (0)
IKTRSVPKIPSIESV | true (1)
RKNRAPPQRPRFNRD | true (1)
LASNSPPVYPKRIRH | false (0)
IHTRRPSSTSQYLIR | true (1)
RRRRRPHRIERPLSN | true (1)
RTRRRPPPPPIPSTQ | true (1)
SLSRRRFSLPSMPNV | true (1)
GKKVRPLLVLLLSRA | false (0)
QPWTDQFEKLEKEVS | false (0)
AIPPPVPNRPGGTTN | true (1)
DDEDVPPQLPTRTKS | false (0)

// data source = the supplement of paper PMC4466140
